Measured values drawn from paper PMC3687796 for this set.

# assay-details: PKs of topotecan and pazopanib in nontumor-bearing animals
# Type: in vivo, mouse
# cond: mouse, plasma, po, 150 mg/kg
measured-attribute: Cmax (µg/mL)
Write down the numeric answer in µg/mL and omit the unit.

### Prompt Look up and report measured Cmax for this entry: Cc1ccc(Nc2nccc(N(C)c3ccc4c(C)n(C)nc4c3)n2)cc1S(N)(=O)=O
### Response 134
